Hello, the source for this data is paper PMC12567398, in case you need it.

assay: in vitro; conditions: human
TEST_READOUT: CC50 at 10 d

Recorded CC50 at 10 d for CC(C)(C)C(=O)OCOP(=O)(COCCn1cnc2c(N)ncnc21)OCOC(=O)C(C)(C)C [ADV, adefovir dipivoxil] , please?
93 µM

* * *

experiment: Neutral Red uptake cell viability assay, COS-7; settings: African green monkey, CC50, COS-7; listed with qPCR / COS-7 (Fig 1E)
TEST_READOUT: CC50 at 4 d

Recorded CC50 at 4 d for CN(C)C(=O)Cn1cc(-c2ccc(-c3cncc4ccccc34)cc2)cn1 , please?
> 50 µM

* * *

assay: in vitro; conditions: mouse
Could you please report measured CC50 at 7 d for the items listed next?

Recorded CC50 at 7 d for Nc1nc2c(ncn2COCCO)c(=O)[nH]1 , please?
> 100 µM

Recorded CC50 at 7 d for Nc1nc(O)c2ncn(COC(CO)CO)c2n1 , please?
> 100 µM
